- Test system: HCT-116
- ASSAY NAME: NCI tumour cell line growth inhibition, 48 h
The source made the active and inactive calls. Rule as the data show it: active = GI50 up to about 1.1 µM and inactive = higher.
OBSERVABLE: GI50

Observe how each entry below is paired with its result.
Cc1ccc(S(=O)(=O)OC[C@@H]2CO2)cc1; > 100 µM (inactive)
Nc1cccc(S(=O)(=O)NCC(=O)O)c1; > 100 µM (inactive)
Cc1c(O)c(OC2OC(CO)C(O)C(O)C2O)cc2c1CC[C@@H]1C2(C)C(=O)C[C@]2(C)[C@@H]([C@@](C)(O)C(O)CCC(C)(C)O)[C@H](O)C[C@@]12C (some centres not stated); > 100 µM (inactive)

For each entry beneath this line, provide reported GI50.
1. CC1(c2ccccc2)CCN(C2CC2)CO1 (configuration not stated)
2. CCCCc1ccc(Nc2nc(S)c3[nH]cnc3n2)cc1
3. CCOC1CC(C)N(C(=O)c2ccccc2)O1 (configuration not stated)
4. COc1cc(/C=C2\N=C(c3ccccc3)N(c3ccc4c(c3)Sc3cc(N5C(=O)/C(=C/c6cc(OC)c(OC)c(OC)c6)N=C5c5ccccc5)ccc3N4)C2=O)cc(OC)c1OC
5. NS(=O)(=O)c1nnc(NS(=O)(=O)c2ccc([N+](=O)[O-])cc2)s1

result:
["19.9 µM (inactive)", "25.5 µM (inactive)", "> 100 µM (inactive)", "42 µM (inactive)", "> 100 µM (inactive)"]

For each entry beneath this line, provide reported GI50.
1. C=C(C)[C@@H]1CC[C@@H]2C(=CC[C@]3(C)C([C@H](C)CC/C=C(/C)C(=O)O)CC[C@@]23C)[C@@]1(C)CCC(=O)O (some centres not stated)
2. CC(=O)OCC1CCC(=C2C(=O)OC(C)(C)OC2=O)N1 (configuration not stated)
3. CCCN(CCC)c1cc2c(cc1F)c(=O)c(C(=O)O)cn2-c1ccc(N2CCN(C)CC2)cn1
4. C=CC[C@]12C=C(OC)[C@@H](O)[C@](OC)(C(c3cc(OC)c4c(c3)OCO4)[C@H]1C)[C@H]2OC(C)=O (some centres not stated)

result:
1: 22.3 µM (inactive); 2: > 100 µM (inactive); 3: 15.3 µM (inactive); 4: > 100 µM (inactive)

For each entry beneath this line, provide reported GI50.
1. O=C(Nc1ccccc1)c1cc(S(=O)(=O)N2CCNC2=O)c(S)cc1Cl
2. CC(C)(C)C1CCC(=O)C(C(O)CC2CC(=O)N(c3ccccc3)C(=O)C2)C1 (configuration not stated)
3. COC(=O)C1OC(O[C@H]2CC[C@]3(C)[C@H]4CC=C5[C@@H]6CC(C)(C)CC[C@]6(C(=O)OC6OCC(O)C(O)C6OC6OC(C)C(OC7OCC(OC8OCC(O)C(O)C8O)C(O)C7O)C(O)C6O)[C@H](O)C[C@@]5(C)[C@]4(C)CC[C@H]3C2(C)C)C(O)C(O)C1O (some centres not stated)
4. CC(=O)Nc1ccc(/N=C2\C(c3ccccc3)=C(SC3=C(c4ccccc4)/C(=N\c4ccc(NC(C)=O)cc4)c4ccccc43)c3ccccc32)cc1
5. CCc1c(O)c2c(c(O)c1C(C)=O)C(=O)c1c(cc(O)c(C(=O)O)c1C(=O)O)C2=O

result:
1. > 100 µM (inactive)
2. > 100 µM (inactive)
3. 2.19 µM (inactive)
4. 34.4 µM (inactive)
5. > 100 µM (inactive)

---

- Tested on: Malme-3M
- ASSAY NAME: NCI tumour cell line growth inhibition, 48 h
Activity calls are given as the source filed them. No stated cut-off is given here; in the data, active = GI50 up to about 1.1 µM and inactive = higher.
Record form. Attribute: GI50. Fill in for each entry.

Observe how each entry below is paired with its result.
O=C(NC1CCN(Cc2ccccc2)CC1)c1cccc(I)c1; 17.1 µM (inactive)
CC1=C(CO)C(=O)O[C@@H]([C@@H](CO)[C@H]2CCC3C4C[C@@H](O)[C@@]5(O)CC=CC(=O)[C@]5(C)C4CC[C@@]32C)C1 (stereo partly specified); 94 µM (inactive)
COc1ccc(-c2cc(O)c3ccc(C)nc3n2)cc1; > 100 µM (inactive)

For each entry beneath this line, provide reported GI50.
1. C=CC(C)(C)n1cc(C2=C3OC(=O)C(c4cn(C(C)(C)C=C)c5ccccc45)=C3OC2=O)c2ccccc21
2. C=C1CCC2CC1C(C(=O)c1c[nH]c3ccccc13)=NC2(C)C (stereo unspecified)
3. CC(C)=C[C@H]1CCC2(OCCO2)[C@]1(C)CO
4. COC(=O)C(CC(=O)Nc1ccc(C)cc1)C(=O)C(=O)Nc1ccccc1C(C)C (stereo unspecified)
5. Nc1cccc(S(=O)(=O)NCC(=O)O)c1
6. CCN1N=CSC12C(=O)N(c1ccccc1)C(=O)N2c1ccccc1 (stereo unspecified)
7. CC1=C(C)C(=O)C2=C(OCCCO2)C1=O
8. O=C(Nc1nc2ccccc2n1Cc1ccc(Cl)cc1)NC12CC3CC(CC(C3)C1)C2

result:
1: > 100 µM (inactive); 2: > 100 µM (inactive); 3: > 100 µM (inactive); 4: > 100 µM (inactive); 5: > 100 µM (inactive); 6: > 100 µM (inactive); 7: > 10 µM (inactive); 8: 19.1 µM (inactive)

---

- System: SR
- ASSAY NAME: NCI tumour cell line growth inhibition, 48 h
Activity calls are given as the source filed them. Cut-off read from the data, not from the text of the source: active = GI50 up to about 1.1 µM and inactive = higher.
Just give me one of these, please: Yes (active), No (inactive)

N#CC(C#N)=C1CCCS(=O)(=O)c2ccccc21; No
S=c1sc2c(s1)SCc1cccc(n1)CSc1sc(=S)sc1SCc1cccc(n1)CS2; No
COC(=O)c1ccccc1/C=C1\Cc2ccc(C)c(C)c2C1=O; No
CCOC(=O)c1ccc(-c2ccc(Cl)cc2)[nH]1; No
Cc1csc(CP(=O)(OC(C)C)OC(C)C)n1; No

query: For Cc1cc2c(cc1C(=O)c1ccc(N)cc1)OCO2 , which call appears in the assay record?
result: No

query: For CN(C)N1C(=C(C#N)C#N)C(c2ccccc2)CC1C#N (centres undefined) , which call appears in the assay record?
result: No

---

- Test system: NCI-H522
- ASSAY NAME: NCI tumour cell line growth inhibition, 48 h
Activity calls are given as the source filed them. No stated cut-off is given here; in the data, active = GI50 up to about 1.1 µM and inactive = higher.
Just give me one of these, please: class 1 (active), class 0 (inactive)

Some entries whose results are on file:
N#CCCN(c1ccc(C=O)cc1)S(=O)(=O)c1ccccc1; class 0
COc1cc2c(cc1C[N+](C)(C)CSc1ccccc1)-c1ccccc1CC2; class 0
c1ccc2c(c1)N=c1ccccc1=P21c2ccccc2Nc2ccccc21; class 1

query: For C=C(C)[C@@H]1CC[C@@H]2C(=CC[C@]3(C)C([C@H](C)CC/C=C(/C)C(=O)O)CC[C@@]23C)[C@@]1(C)CCC(=O)O (some centres undefined) , which call appears in the assay record?
result: class 0

query: For CC1=Nc2c(ccc3c2C(=O)c2ccccc2C3=O)NC(c2cccc3c2CCC3)C1 (centres undefined) , which call appears in the assay record?
result: class 0

query: For CN(C1=NCCO1)c1cccc2c1CCCC2 , which call appears in the assay record?
result: class 0

query: For O=C1N[C@H]2c3c(Cl)sc(Cl)c3C(=O)[C@H]2O1 , which call appears in the assay record?
result: class 0

---

- Test system: SF-295
- ASSAY NAME: NCI tumour cell line growth inhibition, 48 h
Active and inactive are the calls of the source. Rule as the data show it: active = GI50 up to about 1.1 µM and inactive = higher.
Record form. Attribute: GI50. Fill in for each entry.

Observe how each entry below is paired with its result.
COC(=O)Cc1c([C@@]2(C)CCCC(C)(C)C2)ccc2c1C(=O)OC2; 10.3 µM (inactive)
Cc1cc(=O)oc2c(CN3CCCCC3)c(O)ccc12; > 100 µM (inactive)

For each entry beneath this line, provide reported GI50.
1. Cc1cc2c3c(coc3c1-c1c(C)cc3c4c(coc14)C(=O)C(O)=C3C(C)C)C(=O)C(O)=C2C(C)C
2. COc1cc2c[n+](C)c3c4cc(OC)c(OCc5ccccc5)cc4c(OCc4ccccc4)cc3c2cc1OC
3. CSc1nc2c(c(N3CCOCC3)n1)C(O)n1c(nc3ccccc31)S2 (stereo not given)
4. C=C/C(C)=C\CC1[C@](C)(O)CC[C@H]2C(C)(C)C(O)CC[C@]12C (stereo not given in full)

result:
1: 5.37 µM (inactive); 2: 25.7 µM (inactive); 3: 33.5 µM (inactive); 4: > 100 µM (inactive)

For each entry beneath this line, provide reported GI50.
1. Cc1nc(=O)[nH]c(NCCNCCO)c1C(=O)Nc1cccc2cc3ccccc3cc12
2. CC(C)(C)C1=CC(=C2C=Cc3cc(O)ccc3O2)C=C(C(C)(C)C)C1=O
3. Cc1ccccc1NC(=N)Nc1ccccc1C
4. Brc1ccc2c(-c3nc(-c4c[nH]c5ccccc45)cs3)c[nH]c2c1

result:
1: > 100 µM (inactive); 2: 1.87 µM (inactive); 3: > 100 µM (inactive); 4: 20.3 µM (inactive)
